Exercise: for every item that follows, state its recorded selective drug sensitivity score.
# System: NALL-1
# procedureText: selective drug sensitivity score (sDSS, relative to normal bone marrow) (sDSS (score)); higher = more potent and effective on the cell line relative to normal bone marrow cells;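 also: ALL cell lines in 384-well plates, five doses spanning 10,000-fold, each plate scaled between vehicle and 100 µmol/L benzalkonium chloride controls, sDSS an adapted area-under-curve metric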
# conditions: 72 h

# input compound: COc1cc(OC2CCN(C)CC2)ccc1Nc1ncc2c(n1)n(C1CCCC1)c(=O)n2C [AZ3146] (top concentration 10000 nM) ; wanted: its selective drug sensitivity score
-2.16

# input compound: Cc1cn(-c2cc(NC(=O)c3ccc(C)c(Nc4nccc(-c5cccnc5)n4)c3)cc(C(F)(F)F)c2)cn1 [Nilotinib] (top concentration 10000 nM) ; wanted: its selective drug sensitivity score
5.8

# input compound: CCN(CC)CCOc1ccc(/C(=C(/Cl)c2ccccc2)c2ccccc2)cc1 [Clomifene] (top concentration 10000 nM) ; wanted: its selective drug sensitivity score
1.22

# input compound: COc1ncc(-c2ccc3nccc(-c4ccnnc4)c3c2)cc1NS(=O)(=O)c1ccc(F)cc1F [Omipalisib] (top concentration 1000 nM) ; wanted: its selective drug sensitivity score
4.5

# input compound: NC(=O)NO [Hydroxyurea] (top concentration 1000000 nM) ; wanted: its selective drug sensitivity score
-3.74

# input compound: Cc1cc(Nc2cc(CN3CCOCC3)c3nc(C)c(Cc4ccc(Cl)cc4F)n3n2)n[nH]1 [Gandotinib] (top concentration 10000 nM) ; wanted: its selective drug sensitivity score
4.88

# input compound: NS(=O)(=O)NCCNc1nonc1/C(=N/O)Nc1ccc(F)c(Br)c1 [Epacadostat] (top concentration 10000 nM) ; wanted: its selective drug sensitivity score
3.74

---

# Tested on: ALL-PO
# procedureText: selective drug sensitivity score (sDSS, relative to normal bone marrow) (sDSS (score)); higher = more potent and effective on the cell line relative to normal bone marrow cells
# conditions: 72 h
readoutName: selective drug sensitivity score
Could you keep your reply to the number by itself?

# input compound: COc1cc2c(cc1OC(C)C)[C@H](c1ccc(Cl)cc1)N(c1ccc(N(C)C[C@H]3CC[C@H](N4CCN(C)C(=O)C4)CC3)cc1)C(=O)C2 [NVP-CGM097] (top concentration 25000 nM) ; wanted: its selective drug sensitivity score
-3.84

# input compound: C[C@@H](C(=O)O)c1ccc(-c2ccccc2)c(F)c1 [Tarenflurbil] (top concentration 10000 nM) ; wanted: its selective drug sensitivity score
-0.16

# input compound: CN1CCN(c2ccc3nc(-c4c(N)c5c(F)cccc5[nH]c4=O)[nH]c3c2)CC1 [Dovitinib] (top concentration 10000 nM) ; wanted: its selective drug sensitivity score
6.86

# input compound: CC[C@H](NC(=O)[C@H](C)NC)C(=O)N1C[C@@H](O)C[C@H]1Cc1c(-c2[nH]c3cc(F)ccc3c2C[C@@H]2C[C@H](O)CN2C(=O)[C@H](CC)NC(=O)[C@H](C)NC)[nH]c2cc(F)ccc12 [Birinapant] (top concentration 1000 nM) ; wanted: its selective drug sensitivity score
-1.9

# input compound: CO[C@@H](C(=O)N1Cc2[nH]nc(NC(=O)c3ccc(N4CCN(C)CC4)cc3)c2C1)c1ccccc1 [Danusertib] (top concentration 10000 nM) ; wanted: its selective drug sensitivity score
13

# input compound: CN(C)C(=O)c1cc2cnc(Nc3ccc(N4CCNCC4)cn3)nc2n1C1CCCC1 [Ribociclib] (top concentration 10000 nM) ; wanted: its selective drug sensitivity score
0.98

# input compound: C1=N/C2=N/c3ccc(OCCN4CCCC4)c(c3)COC/C=C/COCc3cccc(c3)C(=C1)N2 [Pacritinib] (top concentration 10000 nM) ; wanted: its selective drug sensitivity score
-0.4

# input compound: C[C@@H](Oc1cc(-n2cnc3ccc(CN4CCN(C)CC4)cc32)sc1C(N)=O)c1ccccc1C(F)(F)F (top concentration 10000 nM) ; wanted: its selective drug sensitivity score
22

# input compound: Cc1cccc(-c2[nH]c(CNc3ccccc3F)nc2-c2ccc3ncnn3c2)n1 [Vactosertib (TEW-7197)] (top concentration 2500 nM) ; wanted: its selective drug sensitivity score
-0.5

# input compound: COc1cc(OC)c(/C=C/S(=O)(=O)Cc2ccc(OC)c(NCC(=O)O)c2)c(OC)c1 [Rigosertib] (top concentration 10000 nM) ; wanted: its selective drug sensitivity score
11.2

# input compound: C[C@@H]1CN(CC(=O)Nc2ccc3c(c2)Cc2cccc(-c4cc(=O)cc(N5CCOCC5)o4)c2S3)C[C@H](C)O1 (top concentration 25000 nM) ; wanted: its selective drug sensitivity score
2.02

# input compound: O=C(CCCCCCC(=O)Nc1ccccc1)NO [Vorinostat] (top concentration 10000 nM) ; wanted: its selective drug sensitivity score
10.1

---

# Test system: TANOUE
# procedureText: selective drug sensitivity score (sDSS, relative to normal bone marrow) (sDSS (score)); higher = more potent and effective on the cell line relative to normal bone marrow cells
# conditions: 72 h
Label rule, in plain words: selective drug sensitivity score of -0.3 and up is Criterion met, under -0.3 is Criterion not met.

Is selective drug sensitivity score for c1cc(CN2CCCNCCNCCCNCC2)ccc1CN1CCCNCCNCCCNCC1 [Plerixafor] (top concentration 10000 nM) at or above -0.3?
Criterion met

Is selective drug sensitivity score for CS(=O)(=O)c1ccc(-c2cnc(N)c(C(=O)Nc3ccccc3)n2)cc1 [VE-821] (top concentration 10000 nM) at or above -0.3?
Criterion met

Is selective drug sensitivity score for COc1cc2nccc(Oc3ccc(NC(=O)NC4CC4)c(Cl)c3)c2cc1C(N)=O [Lenvatinib] (top concentration 2500 nM) at or above -0.3?
Criterion met

Is selective drug sensitivity score for C[C@@H]1CN(CC(=O)Nc2ccc3c(c2)Cc2cccc(-c4cc(=O)cc(N5CCOCC5)o4)c2S3)C[C@H](C)O1 (top concentration 25000 nM) at or above -0.3?
Criterion not met

Is selective drug sensitivity score for CC(C)(O)CNc1nc(Nc2ccnc(C(F)(F)F)c2)nc(-c2cccc(C(F)(F)F)n2)n1 [Enasidenib] (top concentration 10000 nM) at or above -0.3?
Criterion not met

Is selective drug sensitivity score for O=C(/C=C/c1cccnc1)NCCCCC1CCN(C(=O)c2ccccc2)CC1 [Daporinad] (top concentration 1000 nM) at or above -0.3?
Criterion met

Is selective drug sensitivity score for Cc1ccc(Nc2nccc(N(C)c3ccc4c(C)n(C)nc4c3)n2)cc1S(N)(=O)=O [Pazopanib] (top concentration 10000 nM) at or above -0.3?
Criterion not met

Is selective drug sensitivity score for C[C@H]1C[C@@H]2[C@H]([C@@H](O)C[C@@]3(C)[C@H]2CC[C@]3(O)C(=O)CO)[C@@]2(C)C=CC(=O)C=C12 [Methylprednisolone] (top concentration 10000 nM) at or above -0.3?
Criterion not met

Is selective drug sensitivity score for CN(C)C(=O)c1cc2cnc(Nc3ccc(N4CCNCC4)cn3)nc2n1C1CCCC1 [Ribociclib] (top concentration 10000 nM) at or above -0.3?
Criterion not met

Is selective drug sensitivity score for O=C1Cc2cc(C(=O)NC3C[C@H]4CC[C@@H](C3)N4S(=O)(=O)CC3CCN(CCCC(F)(F)F)CC3)c(Cl)cc2N1 (stereo partly drawn) (top concentration 10000 nM) at or above -0.3?
Criterion met

Is selective drug sensitivity score for COC(=O)c1ccc2c(c1)[nH]c1ncnc(NCCCN3CCCCC3)c12 [UM729] (top concentration 10000 nM) at or above -0.3?
Criterion met

Is selective drug sensitivity score for CN(C)Cc1ccc(S(=O)(=O)n2ccc(/C=C/C(=O)NO)c2)cc1 [Resminostat] (top concentration 10000 nM) at or above -0.3?
Criterion not met

---

# Tested on: MN-60
# procedureText: selective drug sensitivity score (sDSS, relative to normal bone marrow) (sDSS (score)); higher = more potent and effective on the cell line relative to normal bone marrow cells
# conditions: 72 h
readoutName: selective drug sensitivity score
Could you keep your reply to the number by itself?

# input compound: Cc1cnc(Nc2ccc(OCCN3CCCC3)cc2)nc1Nc1cccc(S(=O)(=O)NC(C)(C)C)c1 [Fedratinib] (top concentration 10000 nM) ; wanted: its selective drug sensitivity score
-4.06

# input compound: O=C(c1cccc(Cl)c1F)N1CCN(Cc2cccc(Nc3nccs3)n2)CC1 [MK-8745] (top concentration 10000 nM) ; wanted: its selective drug sensitivity score
1.6

# input compound: O=c1sn(-c2cccc3ccccc23)c(=O)n1Cc1ccccc1 [Tideglusib] (top concentration 3000 nM) ; wanted: its selective drug sensitivity score
-0.3

# input compound: CC/C(=C(\c1ccc(O)cc1)c1ccc(OCCN(C)C)cc1)c1ccccc1 [4-hydroxytamoxifen] (top concentration 10000 nM) ; wanted: its selective drug sensitivity score
-2.08

# input compound: O=C(NOC[C@H](O)CO)c1ccc(F)c(F)c1Nc1ccc(I)cc1F (top concentration 1000 nM) ; wanted: its selective drug sensitivity score
-3.56

# input compound: COc1ccc(C[C@H](NC(=O)[C@H](C)NC(=O)CN2CCOCC2)C(=O)N[C@@H](Cc2ccccc2)C(=O)[C@@]2(C)CO2)cc1 [ONX-0914] (top concentration 10000 nM) ; wanted: its selective drug sensitivity score
-2.9

# input compound: C[C@H]1Oc2cc(cnc2N)-c2c(nn(C)c2C#N)CN(C)C(=O)c2ccc(F)cc21 (top concentration 1000 nM) ; wanted: its selective drug sensitivity score
-0.72

# input compound: COC(=O)C[C@](O)(CCCC(C)(C)O)C(=O)O[C@@H]1C(OC)=C[C@]23CCCN2CCc2cc4c(cc2[C@H]13)OCO4 [Omacetaxine] (top concentration 10000 nM) ; wanted: its selective drug sensitivity score
-3.88
